Entry source: patent US20240199623A1

Assay: Phosphate-buffered saline (PBS) solubility of compounds
Assay type: physicochemical
Conditions: aqueous buffer, thermodynamic from solid, PBS pH 7.5, 0.5 mg/mL, vortexed 90 min, filtered, LC-MS/MS, read-out: Solubility Range
assayMetric: solubility at 90 min

Enquiry: Return solubility at 90 min for the following compound: COc1ccc(-c2ccnc3cc(C(=O)Nc4ccc(C(=O)O)cc4)nn23)cc1OC
Return: 0.1 to 10 µg/mL

Enquiry: Return solubility at 90 min for the following compound: COc1ccc(-c2ccnc3cc(C(=O)Nc4ccc(NC(=O)CNC(=O)OC(C)(C)C)cc4)nn23)cc1OC
Return: < 0.1 µg/mL

Enquiry: Return solubility at 90 min for the following compound: COc1ccc(-c2ccnc3cc(C(=O)Nc4ccc(C(=O)N5CCN(C)CC5)c(O)c4)nn23)cc1OC
Return: 0.1 to 10 µg/mL

New cases:
Enquiry: Return solubility at 90 min for the following compound: COc1ccc(-c2ccnc3cc(C(=O)Nc4ccc(C(N)=O)cc4)nn23)cc1OC
Return: < 0.1 µg/mL

Enquiry: Return solubility at 90 min for the following compound: CCOC(=O)CNC(=O)c1ccc(NC(=O)c2cc3nccc(-c4ccc(OC)c(OC)c4)n3n2)cc1
Return: < 0.1 µg/mL

Enquiry: Return solubility at 90 min for the following compound: COC(=O)C12CC(NC(=O)c3cc4nccc(-c5ccc(OC)c(OC)c5)n4n3)(C1)C2
Return: 0.1 to 10 µg/mL

Enquiry: Return solubility at 90 min for the following compound: COC(=O)C(=Cc1ccccc1)NC(=O)c1cc2nccc(-c3ccc(OC)c(OC)c3)n2n1
Return: < 0.1 µg/mL

Enquiry: Return solubility at 90 min for the following compound: COC(=O)c1ccc(NC(=O)c2cc3nccc(-c4ccc(OC)c(OC)c4)n3n2)cc1Cl
Return: < 0.1 µg/mL

Enquiry: Return solubility at 90 min for the following compound: COc1ccc(-c2ccnc3cc(C(=O)Nc4cccnc4)nn23)cc1OC
Return: < 0.1 µg/mL

Enquiry: Return solubility at 90 min for the following compound: COC(=O)c1ccc2c(c1)N(C(=O)c1cc3nccc(-c4ccc(OC)c(OC)c4)n3n1)CC2
Return: < 0.1 µg/mL

Enquiry: Return solubility at 90 min for the following compound: COc1ccc(-c2ccnc3cc(C(=O)Nc4ccc(C(=O)OCCCN5CCOCC5)c(F)c4)nn23)cc1OC
Return: < 0.1 µg/mL

Enquiry: Return solubility at 90 min for the following compound: COC(=O)C12CCC(NC(=O)c3cc4nccc(-c5ccc(OC)c(OC)c5)n4n3)(CC1)CC2
Return: < 0.1 µg/mL

Enquiry: Return solubility at 90 min for the following compound: COC(=O)c1ccc2c(c1)CCN2C(=O)c1cc2nccc(-c3ccc(OC)c(OC)c3)n2n1
Return: < 0.1 µg/mL

Enquiry: Return solubility at 90 min for the following compound: COc1ccc(-c2ccnc3cc(C(=O)Nc4ccc(C(=O)OCc5ccccc5)cn4)nn23)cc1OC
Return: < 0.1 µg/mL

Enquiry: Return solubility at 90 min for the following compound: COc1ccc(-c2ccnc3cc(C(=O)N[C@H]4CC[C@@H](C(=O)OC)CC4)nn23)cc1OC
Return: 0.1 to 10 µg/mL

Enquiry: Return solubility at 90 min for the following compound: COc1ccc(-c2ccnc3cc(C(=O)Nc4ccc(C(=O)O)c(O)c4)nn23)cc1OC
Return: < 0.1 µg/mL

Enquiry: Return solubility at 90 min for the following compound: COc1ccc(-c2ccnc3cc(C(=O)Nc4ccc(C(=O)N5CCOCC5)cc4)nn23)cc1OC
Return: < 0.1 µg/mL

====

Biological target: Human recombinant PDE4C1 (Homo sapiens, UniProt Q08493)
Construct: purchased BPS Bioscience; host or cells: insect Sf9 cells
Sequence (Q08493 whole entry): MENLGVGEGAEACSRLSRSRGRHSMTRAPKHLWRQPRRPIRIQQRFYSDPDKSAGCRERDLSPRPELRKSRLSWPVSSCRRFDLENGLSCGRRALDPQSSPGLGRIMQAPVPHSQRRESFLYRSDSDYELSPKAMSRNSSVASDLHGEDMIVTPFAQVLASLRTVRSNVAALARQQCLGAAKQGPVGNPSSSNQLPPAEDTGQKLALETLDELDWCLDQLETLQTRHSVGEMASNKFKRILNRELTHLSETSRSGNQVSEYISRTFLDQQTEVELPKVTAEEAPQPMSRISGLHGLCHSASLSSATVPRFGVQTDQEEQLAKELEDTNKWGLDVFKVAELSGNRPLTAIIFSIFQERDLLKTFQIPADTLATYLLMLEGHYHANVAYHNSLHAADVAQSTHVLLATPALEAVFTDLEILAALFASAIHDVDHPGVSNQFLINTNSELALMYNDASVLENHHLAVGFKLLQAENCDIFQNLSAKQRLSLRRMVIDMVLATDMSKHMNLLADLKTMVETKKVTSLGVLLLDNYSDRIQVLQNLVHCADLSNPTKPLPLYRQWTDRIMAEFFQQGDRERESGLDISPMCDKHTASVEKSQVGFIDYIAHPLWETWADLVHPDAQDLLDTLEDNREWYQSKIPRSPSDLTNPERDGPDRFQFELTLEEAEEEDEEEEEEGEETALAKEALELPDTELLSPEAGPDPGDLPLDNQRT
Experiment: Human phosphodiesterase 4 (PDE4) inhibition, PDE4C1
Type: biochemical
Details: read-out: % inhibition range at 10 uM PDE4C1; 10 uM test compound
Each entry below carries its reported inhibition at 10 µM.

Some solved cases for reference:
Enquiry: Return inhibition at 10 µM for the following compound: CCOc1ccc(NC(=O)c2cc3nccc(-c4ccc(OC)nc4)n3n2)cc1
Return: < 50%

Enquiry: Return inhibition at 10 µM for the following compound: CCOc1ccc(C(=O)Nc2cc3nccc(-c4ccc(OC)c(OC)c4)n3n2)cc1
Return: < 50%

Enquiry: Return inhibition at 10 µM for the following compound: COc1ccc(-c2ccnc3cc(C(=O)N[C@H]4CC[C@H](C(=O)OC)CC4)nn23)cc1OC
Return: > 80%

Enquiry: Return inhibition at 10 µM for the following compound: COc1ccc(-c2ccnc3cc(C(=O)Nc4ccc(N5CCOCC5)cc4)nn23)cc1OC
Return: > 80%

Enquiry: Return inhibition at 10 µM for the following compound: COC(=O)C(=Cc1ccccc1)NC(=O)c1cc2nccc(-c3ccc(OC)c(OC)c3)n2n1
Return: > 80%

Enquiry: Return inhibition at 10 µM for the following compound: COC(=O)c1ccc(CNC(=O)c2cc3nccc(-c4ccc(OC)c(OC)c4)n3n2)cc1
Return: 50 to 80%

Enquiry: Return inhibition at 10 µM for the following compound: COc1ccc(-c2ccnc3cc(C(=O)Nc4ccc(N)cc4)nn23)cc1OC
Return: > 80%

Please examine the following record next.
Enquiry: Return inhibition at 10 µM for the following compound: COc1ccc(-c2ccnc3cc(C(=O)Nc4ccc(C(=O)N5CCOCC5)cn4)nn23)cc1OC
Return: > 80%

====

Target: human wild type-CFTR (Homo sapiens)
Sequence (P13569 whole entry): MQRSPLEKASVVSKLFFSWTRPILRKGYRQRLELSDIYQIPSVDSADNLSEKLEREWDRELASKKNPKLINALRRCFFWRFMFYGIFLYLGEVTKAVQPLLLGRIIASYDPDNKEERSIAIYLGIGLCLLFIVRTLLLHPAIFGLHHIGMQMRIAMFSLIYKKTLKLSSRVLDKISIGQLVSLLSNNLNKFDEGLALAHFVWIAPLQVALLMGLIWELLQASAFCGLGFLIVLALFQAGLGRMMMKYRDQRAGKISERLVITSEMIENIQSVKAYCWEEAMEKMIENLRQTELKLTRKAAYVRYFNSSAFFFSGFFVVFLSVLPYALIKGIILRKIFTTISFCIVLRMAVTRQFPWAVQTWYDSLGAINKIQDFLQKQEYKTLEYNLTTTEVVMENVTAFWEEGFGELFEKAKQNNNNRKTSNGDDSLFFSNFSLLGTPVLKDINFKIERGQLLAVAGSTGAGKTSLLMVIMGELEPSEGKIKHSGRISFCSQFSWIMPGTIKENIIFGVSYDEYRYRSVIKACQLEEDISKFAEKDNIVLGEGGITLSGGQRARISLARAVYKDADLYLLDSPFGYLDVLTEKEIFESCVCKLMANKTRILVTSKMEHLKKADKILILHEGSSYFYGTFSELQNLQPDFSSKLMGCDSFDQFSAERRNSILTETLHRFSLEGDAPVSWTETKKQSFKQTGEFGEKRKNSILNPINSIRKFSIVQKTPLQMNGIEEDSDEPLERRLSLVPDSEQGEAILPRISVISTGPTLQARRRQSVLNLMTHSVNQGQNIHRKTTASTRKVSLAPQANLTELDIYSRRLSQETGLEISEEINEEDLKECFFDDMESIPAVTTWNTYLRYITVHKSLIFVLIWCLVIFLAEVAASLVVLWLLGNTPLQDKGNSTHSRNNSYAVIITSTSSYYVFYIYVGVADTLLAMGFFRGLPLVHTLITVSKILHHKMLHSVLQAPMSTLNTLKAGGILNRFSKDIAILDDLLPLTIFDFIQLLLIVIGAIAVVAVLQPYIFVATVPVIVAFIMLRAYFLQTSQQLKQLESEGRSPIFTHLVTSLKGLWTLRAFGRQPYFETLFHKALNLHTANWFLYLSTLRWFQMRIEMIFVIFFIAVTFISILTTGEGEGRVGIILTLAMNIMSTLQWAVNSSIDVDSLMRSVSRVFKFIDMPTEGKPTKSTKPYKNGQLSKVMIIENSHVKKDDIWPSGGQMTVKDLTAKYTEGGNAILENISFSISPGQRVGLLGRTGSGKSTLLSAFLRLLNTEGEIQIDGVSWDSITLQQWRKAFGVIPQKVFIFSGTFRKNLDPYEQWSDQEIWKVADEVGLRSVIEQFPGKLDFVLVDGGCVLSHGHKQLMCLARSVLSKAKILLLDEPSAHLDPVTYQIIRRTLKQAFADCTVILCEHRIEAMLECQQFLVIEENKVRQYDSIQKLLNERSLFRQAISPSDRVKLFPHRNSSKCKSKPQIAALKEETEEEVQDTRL
Assay: Cell-based YFP assay
Design: expressed in transfected cells; host or cells: CHO-K1 (Chinese hamster ovary)
Settings: CHO-K1 cells expressing human wild type-CFTR and YFP-H148Q/I152L; forskolin 20 μM = 100% activity; read-out: Cell-based YFP Assay (EC50) Concentration Range
pEC50: −log10 of the molar value.
assayMetric: pEC50

Enquiry: Return pEC50 for the following compound: COc1ccc(-c2ccnc3cc(C(=O)NC45CCC(C(=O)N6CCN(C)CC6)(CC4)CC5)nn23)cc1OC
Return: > 6.70

New cases:
Enquiry: Return pEC50 for the following compound: COC(=O)c1ccc2c(c1)CN(C(=O)c1cc3nccc(-c4ccc(OC)c(OC)c4)n3n1)CC2
Return: > 6.70

Enquiry: Return pEC50 for the following compound: COc1ccc(-c2ccnc3cc(C(=O)N4CCN(c5ncccn5)CC4)nn23)cc1OC
Return: 5.70 to 6.70

====

Each entry below carries its reported solubility at 90 min.
Assay: Phosphate-buffered saline (PBS) solubility of compounds
Assay type: physicochemical
Settings: aqueous buffer, thermodynamic from solid, PBS pH 7.5, 0.5 mg/mL, vortexed 90 min, filtered, LC-MS/MS, read-out: Solubility Range

Enquiry: Return solubility at 90 min for the following compound: COc1ccc(-c2ccnc3cc(C(=O)Nc4ccccn4)nn23)cc1OC [Compound 17]
Return: < 0.1 µg/mL

New cases:
Enquiry: Return solubility at 90 min for the following compound: COC(=O)c1ccc(NC(=O)c2cc3nccc(-c4ccc(OC)c(F)c4)n3n2)cc1 [Compound 33]
Return: < 0.1 µg/mL

Enquiry: Return solubility at 90 min for the following compound: COc1ccc(-c2ccnc3cc(C(=O)N4CC[C@H](NC(=O)OC(C)(C)C)C4)nn23)cc1OC [Compound 145]
Return: 0.1 to 10 µg/mL

Enquiry: Return solubility at 90 min for the following compound: COc1ccc(-c2ccnc3cc(C(=O)N[C@H]4CC[C@H](C(=O)O)CC4)nn23)cc1OC [Compound 21]
Return: > 10 µg/mL

Enquiry: Return solubility at 90 min for the following compound: COc1ccc(-c2ccnc3cc(C(=O)N4CCN(C(=O)OC(C)(C)C)CC4)nn23)cc1OC [Compound 62]
Return: 0.1 to 10 µg/mL

Enquiry: Return solubility at 90 min for the following compound: COc1ccc(-c2ccnc3cc(C(=O)Nc4ccc(C(=O)N5CCN(C)CC5)cc4F)nn23)cc1OC [Compound 158]
Return: < 0.1 µg/mL

====

Target: human wild type-CFTR (Homo sapiens)
Experiment: Cell-based YFP assay
Design: expressed in transfected cells; host or cells: CHO-K1 (Chinese hamster ovary)
Conditions: CHO-K1 cells expressing human wild type-CFTR and YFP-H148Q/I152L; forskolin 20 μM = 100% activity; read-out: Cell-based YFP Assay (EC50) Concentration Range
Each entry below carries its reported EC50.

Some solved cases for reference:
Enquiry: # lookup: human wild type-CFTR (Homo sapiens) EC50, key = Cc1cccc(-c2ccnc3cc(C(=O)Nc4ccc(N5CCOCC5)cn4)nn23)c1 [Compound 306]
Return: ≥ 2000 nM

Enquiry: # lookup: human wild type-CFTR (Homo sapiens) EC50, key = CCCCCCCCCCOC(=O)c1ccc(NC(=O)c2cc3nccc(-c4ccc(OC)c(OC)c4)n3n2)cc1 [Compound 337]
Return: ≥ 2000 nM

Enquiry: # lookup: human wild type-CFTR (Homo sapiens) EC50, key = COC(=O)c1ccc(NC(=O)c2cc3nccc(-c4ccc(OC)c(OC)c4)n3n2)cc1 [Compound 11]
Return: < 200 nM

Enquiry: # lookup: human wild type-CFTR (Homo sapiens) EC50, key = COc1ccc(-c2ccnc3cc(C(=O)N4CCN(C(=O)OC(C)(C)C)[C@H](C)C4)nn23)cc1OC [Compound 321]
Return: 200 to 2000 nM

Enquiry: # lookup: human wild type-CFTR (Homo sapiens) EC50, key = COc1ccc(-c2ccnc3cc(C(=O)N[C@H]4CC[C@@H](C(=O)N5CCNCC5)CC4)nn23)cc1OC [Compound 81]
Return: ≥ 2000 nM

Enquiry: # lookup: human wild type-CFTR (Homo sapiens) EC50, key = COc1ccc(-c2ccnc3cc(C(=O)Nc4ccc(C(=O)OCCCN5CCOCC5)cn4)nn23)cc1OC [Compound 142]
Return: < 200 nM

New cases:
Enquiry: # lookup: human wild type-CFTR (Homo sapiens) EC50, key = COc1ccc(-c2ccnc3cc(C(=O)Nc4cccc(C(=O)N5CCN(C(=O)OC(C)(C)C)CC5)c4)nn23)cc1OC [Compound 56]
Return: < 200 nM

Enquiry: # lookup: human wild type-CFTR (Homo sapiens) EC50, key = COc1ccc(-c2ccnc3cc(C(=O)Nc4ccc(Br)cc4)nn23)cc1OC [Compound 268]
Return: < 200 nM

Enquiry: # lookup: human wild type-CFTR (Homo sapiens) EC50, key = COc1ccc(-c2ccnc3cc(C(=O)Nc4ccc(NC(=O)CN(C)C)cc4)nn23)cc1OC [Compound 258]
Return: < 200 nM

Enquiry: # lookup: human wild type-CFTR (Homo sapiens) EC50, key = CCOc1ccc(NC(=O)c2cc3nccc(-c4ccc(F)c(C)c4)n3n2)cc1 [Compound 302]
Return: ≥ 2000 nM

Enquiry: # lookup: human wild type-CFTR (Homo sapiens) EC50, key = COc1ccc(-c2ccnc3cc(C(=O)N[C@H]4CC[C@@H](C(=O)OCc5ccccn5)CC4)nn23)cc1OC [Compound 247]
Return: 200 to 2000 nM

Enquiry: # lookup: human wild type-CFTR (Homo sapiens) EC50, key = CCCCOC(=O)[C@H]1CC[C@H](NC(=O)c2cc3nccc(-c4ccc(OC)c(OC)c4)n3n2)CC1 [Compound 332]
Return: 200 to 2000 nM

Enquiry: # lookup: human wild type-CFTR (Homo sapiens) EC50, key = CCOc1ccc(NC(=O)c2cc3nccc(-c4ccc5c(c4)CCO5)n3n2)cc1 [Compound 313]
Return: ≥ 2000 nM

Enquiry: # lookup: human wild type-CFTR (Homo sapiens) EC50, key = COc1ccc(-c2ccnc3cc(C(=O)N4CCc5cc(C(=O)N6CCOCC6)ccc54)nn23)cc1OC [Compound 251]
Return: 200 to 2000 nM

Enquiry: # lookup: human wild type-CFTR (Homo sapiens) EC50, key = COc1ccc(-c2ccnc3cc(C(=O)N4CCCc5cc(C(=O)O)ccc54)nn23)cc1OC [Compound 233]
Return: ≥ 2000 nM

Enquiry: # lookup: human wild type-CFTR (Homo sapiens) EC50, key = COc1ccc(-c2ccnc3cc(C(=O)Nc4ccc(C(=O)N5CCN(C)CC5)c(F)c4)nn23)cc1OC [Compound 175]
Return: < 200 nM

Enquiry: # lookup: human wild type-CFTR (Homo sapiens) EC50, key = COC(=O)c1ccc(NC(=O)c2cc3nccc(-c4ccc(OC)c(OC)c4)n3n2)nc1 [Compound 31]
Return: < 200 nM

Enquiry: # lookup: human wild type-CFTR (Homo sapiens) EC50, key = COC(=O)C(=Cc1ccccc1)NC(=O)c1cc2nccc(-c3ccc(OC)c(OC)c3)n2n1 [Compound 105]
Return: < 200 nM

Enquiry: # lookup: human wild type-CFTR (Homo sapiens) EC50, key = COc1ccc(-c2ccnc3cc(C(=O)NC45CC(C(=O)N6CCN(C)CC6)(C4)C5)nn23)cc1OC [Compound 123]
Return: ≥ 2000 nM

Enquiry: # lookup: human wild type-CFTR (Homo sapiens) EC50, key = COc1ccc(-c2ccnc3cc(C(=O)Nc4ccc(N5CCNCC5)cn4)nn23)cc1OC [Compound 286]
Return: < 200 nM
